I'd be grateful if you could share measured Emax (%) for these entries.
# measured target: human OX2R (Homo sapiens (Human), UniProt O43614)
# Sequence (O43614 whole entry): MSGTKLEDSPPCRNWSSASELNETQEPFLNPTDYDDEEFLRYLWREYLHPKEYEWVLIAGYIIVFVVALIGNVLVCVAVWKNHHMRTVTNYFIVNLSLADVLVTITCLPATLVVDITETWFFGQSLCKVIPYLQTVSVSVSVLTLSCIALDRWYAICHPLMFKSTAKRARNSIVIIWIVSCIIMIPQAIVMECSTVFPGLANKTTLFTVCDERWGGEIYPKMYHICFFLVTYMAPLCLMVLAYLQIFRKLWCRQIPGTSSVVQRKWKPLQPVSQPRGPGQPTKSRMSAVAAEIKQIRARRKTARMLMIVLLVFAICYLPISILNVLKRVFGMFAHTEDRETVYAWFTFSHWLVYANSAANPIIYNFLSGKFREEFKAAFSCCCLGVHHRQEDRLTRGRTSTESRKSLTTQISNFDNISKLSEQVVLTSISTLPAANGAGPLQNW
# protocol notes: IPOne (IP-1) assay in CHO cells expressing human OX2R
# Type: cell-based
# reported conditions: percentage of mean max effect of a reference compound at 1 uM (100% activity by comparison to Orexin A), human OX2R
Numbers only here, please. The scale is %.

Recorded Emax (%) (molecule COC(=O)N1[C@H](C)C[C@H](NS(=O)(=O)N(C)C)[C@@H]1COC1CCC2(c3cnccn3)CC2C1 (stereo partly drawn) [Example 13] ): 82.0

Recorded Emax (%) (molecule COC(=O)N1[C@H](C)C[C@H](NS(=O)(=O)N(C)C)[C@@H]1COC1CCC2(c3cnccn3)CC2C1 (single isomer, unassigned) [Example 14] ): 93.5

Recorded Emax (%) (molecule CC(C)OC(=O)N1[C@H](C)C[C@H](NS(=O)(=O)C(F)F)[C@@H]1COC1CCC2(c3ncc(F)cn3)CC2C1 (single isomer, unassigned) [Example 92] ): 73.2

Recorded Emax (%) (molecule COC(=O)N1CC[C@H](NS(C)(=O)=O)[C@@H]1CO[C@H]1CC[C@@]2(c3ncccn3)C[C@H]2C1 (single isomer, unassigned) [Example 24] ): 99.8

Recorded Emax (%) (molecule COC(=O)N1[C@H](C)C[C@H](NS(=O)(=O)N(C)C)[C@@H]1COC1CCC2(c3ncccn3)CC2C1 (single isomer, unassigned) [Example 187] ): 100.0

Recorded Emax (%) (molecule COC(=O)N1[C@H](C)C[C@H](NS(C)(=O)=O)[C@@H]1CO[C@@H]1CC[C@]2(c3ncccn3)C[C@@H]2C1 (single isomer, unassigned) [Example 20] ): 99.7

---

I'd be grateful if you could share measured Emax for these entries.
# measured target: UniProt O43614
# protocol notes: IPOne (IP-1) assay in CHO cells expressing human OX2R
# Type: cell-based
# reported conditions: CHO, percentage of mean max effect of a reference compound at 1 uM (100% activity by comparison to Orexin A), human OX2R; read-out: Emax (%)
The reply must contain the numeric value and, after it, the unit.

Recorded Emax (molecule COC(=O)N1[C@@H]2CCC[C@@H]2[C@H](NS(C)(=O)=O)[C@@H]1COC1CCC2(c3ncccn3)CC2C1 (stereo partly shown) [Example 175] ): 99.9%

Recorded Emax (molecule COC(=O)N1CC[C@H](NS(C)(=O)=O)[C@@H]1CO[C@H]1CC[C@@]2(c3ncccn3)C[C@H]2C1 (single isomer, unassigned) [Example 177] ): 99.8%

Recorded Emax (molecule CC(C)OC(=O)N1[C@H](C)C[C@H](NS(C)(=O)=O)[C@@H]1COC1CCC2(c3ncc(Cl)cn3)CC2C1 (stereo partly shown) [Example 154] ): 101%

Recorded Emax (molecule CC(C)OC(=O)N1[C@H](C)C[C@H](NS(=O)(=O)CF)[C@@H]1COC1CCC2(c3ncc(Cl)cn3)CC2C1 (stereo partly shown) [Example 107] ): 104%

Recorded Emax (molecule C[C@@H]1C[C@H](NS(C)(=O)=O)[C@H](CO[C@H]2CC[C@@]3(c4ncc(F)cn4)C[C@H]3C2)N1C(=O)OCC(F)(F)F [Example 65] ): 102%

Recorded Emax (molecule CCC(F)(F)COC(=O)N1[C@H](C)C[C@H](NS(C)(=O)=O)[C@@H]1CO[C@H]1CC[C@@]2(c3ncc(F)cn3)C[C@H]2C1 [Example 60] ): 104%

Recorded Emax (molecule COC(=O)N1[C@H](C)C[C@H](NS(=O)(=O)CF)[C@@H]1COC1CCC2(c3ncc(Cl)cn3)CC2C1 (stereo partly shown) [Example 94] ): 102%

Recorded Emax (molecule CC(C)OC(=O)N1[C@H](C)C[C@H](NS(=O)(=O)CF)[C@@H]1COC1CCC2(c3ncc(F)cn3)CC2C1 (stereo partly shown) [Example 111] ): 98.5%

Recorded Emax (molecule CC(C)OC(=O)N1[C@H](C(F)F)C[C@H](NS(C)(=O)=O)[C@@H]1CO[C@H]1CC[C@@]2(c3ncc(F)cn3)C[C@H]2C1 [Example 119] ): 100%

Recorded Emax (molecule CC(C)OC(=O)N1CCC[C@H](NS(=O)(=O)C(F)F)[C@@H]1CO[C@H]1CC[C@@]2(c3ncc(F)cn3)C[C@H]2C1 [Example 121] ): 108%

Recorded Emax (molecule COC(=O)N1[C@H](C)C[C@H](NS(C)(=O)=O)[C@@H]1COC1CCC2(c3ncccn3)CC2C1 (stereo partly shown) [Example 184] ): 102%

Recorded Emax (molecule COC(=O)N1[C@@H]2COC[C@@H]2C(NS(C)(=O)=O)[C@@H]1COC1CCC2(c3ncc(F)cn3)CC2C1 (mixture of isomers) [Example 134] ): 99.7%

Recorded Emax (molecule CC(C)OC(=O)N1[C@H](C)C[C@H](NS(=O)(=O)C(F)F)[C@@H]1CO[C@@H]1CC[C@]2(c3ncc(F)cn3)C[C@@H]2C1 (single isomer, unassigned) [Example 91] ): 102%

---

I'd be grateful if you could share measured log10(IC50) for these entries.
# measured target: human OX2R (Homo sapiens (Human), UniProt O43614)
# protocol notes: IPOne (IP-1) assay in CHO cells expressing human OX2R
# reported conditions: CHO cells expressing human OX2R; IP-One detection; 2 hours incubation; EC50 = inflection point of four parameter logistic fit; read-out: hOX2R_IP_IC50
Use the decimal logarithm of IC50 (nM).

Recorded log10(IC50) (molecule COC(=O)N1[C@H](C)C[C@H](NS(=O)(=O)CF)[C@@H]1CO[C@H]1CC[C@@]2(c3ncc(Cl)c(OC)n3)C[C@H]2C1 (single isomer, unassigned) [Example 84] ): 0.66

Recorded log10(IC50) (molecule COC(=O)N1[C@H](C)C[C@H](NS(=O)(=O)N(C)C)[C@@H]1CO[C@H]1CC[C@@]2(c3ncc(F)cn3)C[C@H]2C1 [Example 166] ): -0.39

Recorded log10(IC50) (molecule COC(=O)N1[C@H](C)C[C@H](NS(C)(=O)=O)[C@@H]1CO[C@@H]1CC[C@]2(c3ncc(C)cn3)C[C@@H]2C1 (single isomer, unassigned) [Example 155] ): 2.86

Recorded log10(IC50) (molecule COC(=O)N1[C@H](C(F)(F)F)C[C@H](NS(C)(=O)=O)[C@@H]1CO[C@H]1CC[C@@]2(c3ncc(F)cn3)C[C@H]2C1 (single isomer, unassigned) [Example 133] ): 0.41

Recorded log10(IC50) (molecule CC(C)OC(=O)N1[C@H](C)C[C@H](NS(=O)(=O)CF)[C@@H]1CO[C@@H]1CC[C@]2(c3ncc(F)cn3)C[C@@H]2C1 (single isomer, unassigned) [Example 99] ): 0.40

Recorded log10(IC50) (molecule COC(=O)N1[C@H](C)C[C@H](NS(=O)(=O)N(C)C)[C@@H]1COC1CCC2(c3ncc(F)cn3)CC2C1 (stereo partly drawn) [Example 169] ): 0.18

---

I'd be grateful if you could share measured log10 IC50 for these entries.
# measured target: human OX2R (Homo sapiens (Human))
# protocol notes: IPOne (IP-1) assay in CHO cells expressing human OX2R
# reported conditions: CHO cells expressing human OX2R; IP-One detection; 2 hours incubation; EC50 = inflection point of four parameter logistic fit; read-out: hOX2R_IP_IC50
Use the decimal logarithm of IC50 (µM).

Recorded log10 IC50 (compound COC(=O)N1CC[C@H](NS(C)(=O)=O)[C@@H]1CO[C@H]1CC[C@@]2(c3ncccn3)C[C@H]2C1 (single isomer, unassigned) [Example 24] ): -0.62

Recorded log10 IC50 (compound COC(=O)N1[C@H](C)C[C@H](NS(C)(=O)=O)[C@@H]1CO[C@H]1CC[C@@]2(c3ncc(C)cn3)C[C@H]2C1 (single isomer, unassigned) ): -1.72

Recorded log10 IC50 (compound COC(=O)N1[C@H](C)C[C@H](NS(=O)(=O)N(C)C)[C@@H]1CO[C@@H]1CC[C@]2(c3ncc(F)cn3)C[C@@H]2C1 (single isomer, unassigned) ): -2.41

Recorded log10 IC50 (compound COC(=O)N1[C@H](C(F)F)C[C@H](NS(C)(=O)=O)[C@@H]1CO[C@H]1CC[C@@]2(c3ncc(F)cn3)C[C@H]2C1 (single isomer, unassigned) ): -2.77

Recorded log10 IC50 (compound COC(=O)N1[C@H](C)C[C@H](NS(C)(=O)=O)[C@@H]1COC1CCC2(c3ncc(Cl)c(OC)n3)CC2C1 (stereo partly drawn) ): -1.47

Recorded log10 IC50 (compound CC(C)OC(=O)N1[C@H](C)C[C@H](NS(=O)(=O)C(F)F)[C@@H]1COC1CCC2(c3ncc(F)cn3)CC2C1 (single isomer, unassigned) [Example 92] ): -0.11

---

# measured target: human OX2R (Homo sapiens (Human))
# protocol notes: IPOne (IP-1) assay in CHO cells expressing human OX2R
# Assay type: cell-based
# reported conditions: percentage of mean max effect of a reference compound at 1 uM (100% activity by comparison to Orexin A), human OX2R
I'd be grateful if you could share measured Emax (%) for these entries.
Numbers only here, please. The scale is %.

Recorded Emax (%) (compound COC(=O)N1CC[C@H](NS(C)(=O)=O)[C@@H]1CO[C@@H]1CC[C@]2(c3ncccn3)C[C@@H]2C1 (single isomer, unassigned) [Example 25] ): 94.7

Recorded Emax (%) (compound COC(=O)N1CC[C@H](NS(C)(=O)=O)[C@@H]1COC1CCC2(c3ncccn3)CC2C1 (stereo partly drawn) [Example 21] ): 94.6

Recorded Emax (%) (compound CC(C)OC(=O)N1[C@H](C)C[C@H](NS(=O)(=O)C(F)F)[C@@H]1COC1CCC2(c3ncc(F)cn3)CC2C1 (single isomer, unassigned) [Example 93] ): 40.6
